The reported numbers originate from the supplement of paper PMC9262897.

# System: E. coli TESEC Mtb DapB
# MEASUREMENT_DESCRIPTION: growth (OD600 after 10 h); higher = more growth (less inhibition)
# COND: arabinose induction (level): Low; compound 0.1 mM; raw OD600 reference: median of DMSO wells 0.227, cell-free background 0.041
Structures can show the parent of a compound that is named as a salt.
OBSERVED_PROPERTY: growth
Output spec: single numeric token, no unit.

Illustrative cases are given below, each with its answer.
COMPOUND	DATA_VALUE
CN(C)CCc1c[nH]c2ccc(Cn3cncn3)cc12 [Rizatriptan benzoate]	0.211
CC(=O)OCC(=O)[C@@]1(O)CC[C@H]2[C@@H]3CCC4=CC(=O)CC[C@]4(C)[C@H]3[C@@H](O)C[C@@]21C [Cortisol acetate]	0.206

Quote E. coli TESEC Mtb DapB growth for entry "CC[C@H](C)C(=O)O[C@H]1C[C@H](O)C=C2C=C[C@H](C)[C@H](CC[C@@H](O)C[C@@H](O)CC(=O)O)[C@H]21" .
0.225

Look up E. coli TESEC Mtb DapB data: growth of COc1cc([S+](C)[O-])ccc1-c1nc2cccnc2[nH]1 (configuration not stated) , then report it.
0.209

Report measured growth on E. coli TESEC Mtb DapB; entry: "CC(C)Oc1ccc2c(=O)c(-c3ccccc3)coc2c1"
0.211

Report growth from E. coli TESEC Mtb DapB testing of Cc1ccc(C(=O)c2ccc(CC(=O)O)n2C)cc1 [Tolmetin sodium salt dihydrate]
0.223

For E. coli TESEC Mtb DapB, give growth of the listed compound: CCCCCCCCCCCCCCCC[N+](C)(C)CCN(Cc1ccc(OC)cc1)c1ncccn1 [Thonzonium bromide]
0.0589

Name the value of growth reported for Cc1ccccc1C(OCCN(C)C)c1ccccc1 (configuration not stated) [Orphenadrine hydrochloride] when tested on E. coli TESEC Mtb DapB.
0.241

Lab note: E. coli TESEC Mtb DapB assay, enter growth for CN(C)[C@@H]1C(=O)C(C(N)=O)=C(O)[C@@]2(O)C(=O)C3=C(O)c4c(O)ccc(Cl)c4[C@@H](O)[C@H]3C[C@@H]12 [Demeclocycline hydrochloride] here
0.0559

Under E. coli TESEC Mtb DapB, report growth for CNCC[C@@H](Oc1ccccc1C)c1ccccc1 [Tomoxetine hydrochloride]
0.263
